- test.protocol: Solubility of BPR0C261 in different carriers or mixed carriers
- Type: physicochemical
- test.settings: organic solvent or mixture; carrier 10: TPGS (20%), Transcutol (20%), and PEG 400 (60%); room temperature
assay.metric: solubility

INSERT INTO results (compound_string, assay_metric, meas_value) VALUES
  ('Cc1cc(Cn2cc(C(=O)C(=O)Nc3cc(C)ns3)c3ccccc32)on1', 'solubility', '~50 mg/mL');
